assay: amyloid nucleation score (Sup35N fusion, yeast selection) (log enrichment); library NNK1; higher = more nucleation; inactive = no reads after selection;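 further: zero at mode of non-aggregating sequences after 7 days selection at 30°C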
Lab note: anything with amyloid nucleation score at or over 0.5 counts as True; the rest go in False.

- HRLDLSCSWNMNKVRGDWCS: False
- PTLLALYGG: False
- VGCSRIDDPRSGAEALRSYC: True
- CFSISVTAYHSKSAT: True
- WIRDDVVMGGAECCLVLNQ: True
- LNASGIVVCFYSSDNTCTYE: True
- MMAFDRRCLGFPMNVGYD: True
- RYRSMHHFRVHDKHPMLGYA: True
- SSCKCRCGFD: False
- LKEDISPSELHTQLC: True
- QSVCSTCSRGPSHCAAGSV: False
- SYRPFLMLGAQLQPYRVSGS: True
- TYFWGSLIPEWWLFELYPLE: True
- HGYSNNVARYWA: False
- SMLRCLY: True
- LMIRILMVAQNSVLTVFW: False
- CQVPGSRRHRRSIRERQNWN: True
- FPDMCILRILYVKVLV: False
- ADDVCSCQGFLYRDVFCATD: True
- EKELIK: True
- ISGLNV: False
- YSAIRTKFFAA: True
- CSGNRMDPLTVRLFVGLGIL: False
- YSLSRCSSEDMSYVYWCSRS: False
- LDQKTFWLSVPVSWQIPADM: False
- HAGFGFVSSCCYLHWLTGDR: True
- TFLYVWSTSDSYKK: False
- DIVATYRVRISLNPNVMVTY: False

====

assay: amyloid nucleation score (Sup35N fusion, yeast selection) (log enrichment); library NNK1; higher = more nucleation; inactive = no reads after selection
Lab note: anything with amyloid nucleation score at or over 0.04 counts as condition met; the rest go in condition not met.

• SVVSFINLIASYFRELVGAV = condition met
• RRTLSSGVSLYCYPKLGVAR = condition not met
• GARYVLYMLT = condition not met
• TCIARHLQILSVNRCCVRFA = condition met
• CIRVWCLILSRSWGFTPANC = condition met
• AYCLRN = condition met
• PLFLVVTQMS = condition met
• DAYMMLFLYSPVWECFLMKG = condition not met
• TLRVVMKWLAHTWFRHTLMR = condition not met
• TAYWIVYRVKGLLRFFSRLA = condition not met
• FGKSYRRFFARTKFGKAGGP = condition not met
• PHVTGGSPCSKHSLRW = condition not met
• WDWHIGRKWV = condition not met
• ARGHGFQPVGPLGSVILMAR = condition not met
• RHLRVTFNSLSWRKMKAGVV = condition not met
• QLKGSSWYYENRVGRSGRGV = condition met
• KDVFPILGFCSAYLPYAWSA = condition not met
• VGLLMKTACSWAGSVTDRCM = condition met
• MWNRFWLLDALLWGNYLSQS = condition met
• GQRSLT = condition not met

====

assay: amyloid nucleation score (Sup35N fusion, yeast selection) (log enrichment); library NNK1; higher = more nucleation; inactive = no reads after selection
Lab note: anything with amyloid nucleation score at or over 0.7 counts as Satisfied; the rest go in Not satisfied.

- KWLPMKMKLWFDNSYGGQWF: Not satisfied
- GVCRLLGKVAMLV: Not satisfied
- YRSSVL: Not satisfied
- YPVRFHTYVVISTFGEIGFG: Satisfied
- TSVDVFS: Not satisfied
- LEASSIISSRTPG: Not satisfied
- FNSRTAGCRLSTQMFSRKQT: Not satisfied
- FLLIVVCWDLRLSSFHKLYF: Not satisfied
- AGRRKSRSAVQREP: Not satisfied
- YRLRQPLPSERSLMEHSCGV: Satisfied
- TSSEFDLLNGQFANGYVLVH: Not satisfied
- YIMILYRKGMFILRVFSLLL: Not satisfied
- DISMLRKKSCKHTVNMMSL: Not satisfied
- ISLVICGFYGLAEMVDNSQN: Satisfied
- EPGSLTESKSFYFLSCPTTR: Satisfied
- KNSLTTKVLLCTLAATL: Not satisfied
- VLKGNKRRVLNAWVAYVLRS: Not satisfied
- AEHYPGIVVCLSLCDS: Not satisfied
- ILLMSSGEDYSHTGAP: Not satisfied
- PCWTNSLLKPPVGIR: Not satisfied
- MCGQLV: Not satisfied
- SLRLFEFFWLTFGSSQIHLA: Not satisfied
- ECPRVSLASGDVE: Satisfied
- CKNNGGKDMSVMI: Satisfied
- DREIAMVWHLSYIIFYFSES: Not satisfied
- EVCCNVKTL: Not satisfied
- SNRFFVPRA: Not satisfied
- QVNRSVDFPSRFIKSY: Not satisfied
- NGWIMRR: Not satisfied
- GYRHRYQQTKGIVTHSMYFD: Satisfied
- PQVKTFGVVFVGGMCE: Not satisfied
- CCDIEITLSHGVIGICSRKT: Satisfied
- SWSPRHELPLGKLRWIWDRG: Satisfied
- LVFCVLMW: Not satisfied
- FHIQEANIFRE: Not satisfied
- HRSVGSRECRSSSEFYVLR: Satisfied
- KVKNRAFWPHMSLTYAMVPP: Not satisfied
- KTFLHSTSYNNKKRWMSLRQ: Not satisfied
- WSSPQEQT: Not satisfied
- VGLDLALSYHFAQG: Satisfied

====

Readings of amyloid nucleation score for the listed substances
assay: amyloid nucleation score (Sup35N fusion, yeast selection) (log enrichment); library NNK2; higher = more nucleation; inactive = no reads after selection
outcome_measure: amyloid nucleation score

- SLDNWFTDSRAGVGLVFS: -0.277
- ALFIRVYMLFRRCEECSLQV: 7.58
- LGMCYWGLVTCH: 0.749
- GAAFILSIYYQPSTTPPLRA: 2.62
- KCLFES: 0.144
- LNMMIINISFRSKSVDGSRM: 6.95
- QFFMWTGGH: 2.84
- FINVLDSNLAQLWLLFTSWR: 1.51
- PSLLFFSCV: -0.366
- HMDHARLEVLTVILLGVWGF: 5.11
- KWLTAHAAYLWSETEVRMVV: 0.673
- SMTCRDLFSWYGSWYQSILF: 0.874
- ASMCIGRWIFGEYYSFNMFI: 0.775
- WSKVMCQWFSDIYSVTNFGC: 2.76
- KGLLCTHESMGVYRDSWPCY: -0.067
- CCLTPYAIICLLARLNHTKV: -0.273
- AHSKHPGTYGQFMSEQSGEA: 0.767
- EKLRNQFKP: -0.569
- VSSTSLNSKDQWCCCERGSP: 0.619
- LVLYGNVA: 0.28
- VAMSCGRSYLKCLMACGLHM: -0.053
- AGIFQNSRRNPYRVYMMSVY: 3.31
- TRSSNNPPGMVDT: -0.959
- GCGGDKKDFVISFWWEKYFR: -1.74
- YILRSANLM: -0.406
- NMLWASMYH: -0.546
- AVLLPNWSAYSGKNTSYVPV: 2.13
- CCYVHWILGAGDREGRLWRQ: 3.86
- CKLPDVTIMDYLLPFM: -0.333
- YEPRSNLCCIINTIKFPKTI: 6.17
- PCSANWRLYIANISGSFPMR: 5.34
- TKVMQGVNSMARGV: 1.08
- SKLRFAIIFAKHVS: -0.322
- GYLVTLWD: 1.03
- NCWNLICLKSSFRR: 9.05
- AISLYMFVRDIAKSILRQVC: 0.269
- YHEVFLTLSIEWRMMLWVG: -0.318
- SFGTFSCLYSVYNI: 2.84
- ADIAYFRLVMLKHTIYPVHM: 1.82
- YNMGNSGLGGTRWEIICFAI: -1.02
- IPTFKDLGFISESIMYNG: -1.38
- FLGEAHFI: 0.078
- HNSMSWFR: 4.45
- MSNARRFSMNDSYNIVLCWE: -0.111
- CSFHVGNLTWWANVEARVVV: 0.176
- KTGVGTYIPQWDCNGHEMVS: 0.423
- YFTNFWLLCLLSG: 4.34
- WHNITWYMFGPFMPGGEMLM: 0.446
- VSTIIWCIR: 5.14
- WAYAVNPTCYNFVGTGGSCS: 2.44
- NRLMVPSTNKFTCLPE: 0.056
- NAVFVFSRWWYISNVVPQK: -1.48
- TGFKCSLLTY: -0.91
- ETSMYVYLGI: -0.384
- EFWPKELIRSDDSASFNGMS: 0.007
- LAPCISNMSRLL: -1.25
- LMLAYRLIFDDNRTGLSSAS: 0.211
- WMSMKFCFIFLPFYKSSVCM: 1.91
- VLWHTGDMDMRVNRANELVS: 4.52
- FAYLPSTVVGVSHSTLGPLI: 0.221
